measurement-protocol: Selnoflast plasma pharmacokinetics in UC patients (LC‐MS/MS, non‐compartmental)
Assay type: in vivo, human
assay-setup: human, plasma, po, 450 mg, 450 mg QD oral, fasted, UC patients N = 13, steady‐state (Day 5), geometric mean (CV% geo mean); read-out: AUCtau
measured-metric: AUC (µg·h/mL)

>>> result_value("CCN1CCC(S(=O)(=O)NC(=O)Nc2c3c(cc4c2CCC4)CCC3)CC1 [Selnoflast, selnoflast]")
268

* * *

measurement-protocol: Selnoflast plasma pharmacokinetics in UC patients (LC‐MS/MS, non‐compartmental)
Type: in vivo, human
assay-setup: human, plasma, po, 450 mg, 450 mg QD oral, fasted, UC patients N = 13, steady‐state (Day 5), median (range); read-out: Tmax
measured-metric: Tmax (h)

>>> result_value("CCN1CCC(S(=O)(=O)NC(=O)Nc2c3c(cc4c2CCC4)CCC3)CC1 [Selnoflast, selnoflast]")
1
